Biological target: T1, cell surface ULBP6_01 on COV644 cells (human, UniProt Q5VY80 27-218)
T1 construct: whole, on cells; also called cell surface ULBP6 (COV644)
T1 chain: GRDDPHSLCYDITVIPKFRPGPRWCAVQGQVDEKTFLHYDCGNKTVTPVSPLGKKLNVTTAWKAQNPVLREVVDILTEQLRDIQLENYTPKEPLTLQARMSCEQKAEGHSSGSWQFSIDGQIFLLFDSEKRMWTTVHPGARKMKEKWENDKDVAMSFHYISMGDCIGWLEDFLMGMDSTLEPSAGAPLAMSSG
Assay: flow cytometry; blocking of hNKG2D-mFc binding to COV644 cells, average of 2 replicates
READOUT_KIND: IC50 (pM)
Numbers only, in pM.

Observe how each entry below is paired with its result.
humanized 7B3 (h7B3), Fc version not stated (antibody, V domains shown, Recombinant humanized antibody, hIgG1 backbone with kappa light chain; also called hu7B3; PUR3922) VH: EVQLVESGGGLVQPGGSLRLSCAASGFTFSTYGFHWVRQAPGKGLEWVAYISSNSGTIDYADTVKGRFTISRDNAKNSLYLQMNSLRAEDTAVYYCARQGYGFDNWGQGTTVTVSS VL: DIQLTQSPSSLSASVGDRVTITCSASSRVSYMNWYQQKPGKSPKIWVYGISNLASGVPSRFSGSGSGTDFTFTISSLQPEDIATYYCQQRSSHPLTFGGGTKVEIK | 170
humanized 1D4 (h1D4), Fc version not stated (antibody, V domains shown, Recombinant humanized antibody, hIgG1 backbone with kappa light chain; also called hiD4; hu1D4) VH: EIQLVQSGSELKKPGASVKVSCKASGYTFTEYPIHWVRQAPGQGFEWMGMIYTDTGEPTHAEEFKGRFVFSLDTSVSTAYLQISSLKAEDTAVYFCVRWYDGSSYIMDYWGQGTTVTVSS VL: DIQMTQSPSSLSASVGDRVTITCKASQDINSYLSWFQQKPGKSPKTLIYRANRLVDGVPSRFSGSGSGQDYTFTISSLQPEDIATYYCLQYDEFPLTFGGGTKVEIK | 220

Next, consider the following binder.
Complete the entry with IC50 for humanized 6E1 (h6E1), Fc version not stated (antibody, V domains shown, Recombinant humanized antibody, hIgG1 backbone with kappa light chain; also called hu6E1; PUR3993) VH: EVQLVQSGAEVKKPGASVKVSCKASGYTFTNYWMHWMRQAPGQGLEWLGRIHPSDSDTNYNQKFKGRATLTVDKSISTAYMELSRLRSDDTAVYYCAIEGTGKGYFDVWGRGTLVTVSS VL: DIQMTQSPSSLSASVGDRVTITCKASQDIYSYLSWFQQKPGKSPKTLIYRANRLVDGVPSRFSGSGSGQDFTLTISSLQPEDFATYYCLHYDEFPLTFGGGTKVEIK
200
